Target: Phosphatidylinositol 4,5-bisphosphate 3-kinase catalytic subunit alpha isoform (Homo sapiens, UniProt P42336)
Sequence (P42336 whole entry, canonical isoform): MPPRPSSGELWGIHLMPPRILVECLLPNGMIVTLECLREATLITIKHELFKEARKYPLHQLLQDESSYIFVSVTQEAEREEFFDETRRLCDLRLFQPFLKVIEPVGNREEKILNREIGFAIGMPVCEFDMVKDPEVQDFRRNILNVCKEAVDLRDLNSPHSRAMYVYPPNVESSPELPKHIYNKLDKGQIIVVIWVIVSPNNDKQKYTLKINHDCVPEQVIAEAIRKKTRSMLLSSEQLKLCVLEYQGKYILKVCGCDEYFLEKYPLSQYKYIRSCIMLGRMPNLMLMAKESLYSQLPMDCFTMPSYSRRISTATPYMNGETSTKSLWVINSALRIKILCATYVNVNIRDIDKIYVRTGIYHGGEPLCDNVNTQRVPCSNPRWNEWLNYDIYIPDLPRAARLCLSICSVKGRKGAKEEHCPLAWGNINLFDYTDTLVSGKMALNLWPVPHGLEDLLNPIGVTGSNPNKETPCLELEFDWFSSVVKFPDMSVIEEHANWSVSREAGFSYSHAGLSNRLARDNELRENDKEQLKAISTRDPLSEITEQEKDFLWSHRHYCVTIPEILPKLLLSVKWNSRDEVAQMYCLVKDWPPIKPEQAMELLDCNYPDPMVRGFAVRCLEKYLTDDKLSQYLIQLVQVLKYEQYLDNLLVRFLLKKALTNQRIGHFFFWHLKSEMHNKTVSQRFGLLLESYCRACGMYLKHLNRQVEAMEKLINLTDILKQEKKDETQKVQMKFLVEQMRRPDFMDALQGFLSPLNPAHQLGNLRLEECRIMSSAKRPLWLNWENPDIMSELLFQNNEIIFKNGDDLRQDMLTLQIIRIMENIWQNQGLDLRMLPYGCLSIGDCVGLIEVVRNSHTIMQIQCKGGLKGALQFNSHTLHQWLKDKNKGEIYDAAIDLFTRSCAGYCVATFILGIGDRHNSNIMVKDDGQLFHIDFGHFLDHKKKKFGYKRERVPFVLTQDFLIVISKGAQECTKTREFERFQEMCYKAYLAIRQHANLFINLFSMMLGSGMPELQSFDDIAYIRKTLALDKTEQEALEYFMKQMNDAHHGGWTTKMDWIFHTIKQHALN
measurement-label: pKi
As a rule, pKi stands for the negative log10 of the concentration, concentration in M.

Q) Which pKi reading was recorded for the molecule COc1ccc(Sc2nccc(-c3ccc4nc(NC(C)=O)sc4c3)n2)cc1 ?
A) 7.74

Q) Which pKi reading was recorded for the molecule CCN(c1nccc(-c2ccc3nc(NC(C)=O)sc3c2)n1)S(=O)(=O)c1ccc(OC)cc1 ?
A) 7.21

Q) Which pKi reading was recorded for the molecule CC(=O)Nc1nc2ccc(-c3ccnc(NS(=O)(=O)c4ccc(F)cc4)n3)cc2s1 ?
A) 6.08

Q) Which pKi reading was recorded for the molecule COc1ccc(S(=O)(=O)Nc2cccc(-c3ccc4nc(NC(C)=O)sc4c3)c2)cc1 ?
A) 7.32

Q) Which pKi reading was recorded for the molecule CC(=O)Nc1nc2ccc(-c3ccnc(OCc4ccncc4)n3)cc2s1 ?
A) 6.89

Q) Which pKi reading was recorded for the molecule CC(=O)Nc1nc2ccc(-c3ccnc(Sc4cccc(F)c4)n3)cc2s1 ?
A) 7.51

Q) Which pKi reading was recorded for the molecule COc1ccc(S(=O)(=O)Nc2cncc(-c3ccc4nc(NC(C)=O)sc4c3)n2)cc1 ?
A) 8.05

Q) Which pKi reading was recorded for the molecule CC(=O)Nc1nc2ccc(-c3ccnc(OCc4cccc(C)c4)n3)cc2s1 ?
A) 7.33

Q) Which pKi reading was recorded for the molecule COc1ccc(S(=O)(=O)Nc2cncc(-c3ccc4nc(NC(C)=O)sc4c3)c2)cc1 ?
A) 8.80

Q) Which pKi reading was recorded for the molecule CC(=O)Nc1nc2ccc(-c3ccnc(OCc4ccccc4)n3)cc2s1 ?
A) 6.98

Q) Which pKi reading was recorded for the molecule CC(=O)Nc1nc2ccc(-c3ccnc(OCCCc4ccncc4)n3)cc2s1 ?
A) 6.94

Q) Which pKi reading was recorded for the molecule COc1ccc(COc2nccc(-c3ccc4nc(NC(C)=O)sc4c3)n2)cc1 ?
A) 7.24

Q) Which pKi reading was recorded for the molecule COc1cccc(Sc2nccc(-c3ccc4nc(NC(C)=O)sc4c3)n2)c1 ?
A) 7.32

Q) Which pKi reading was recorded for the molecule CC(=O)Nc1nc2ccc(-c3ccnc(NCc4ccccc4)n3)cc2s1 ?
A) 7.07

Q) Which pKi reading was recorded for the molecule CC(=O)Nc1nc2ccc(-c3ccnc(Sc4ccccc4F)n3)cc2s1 ?
A) 7.34

Q) Which pKi reading was recorded for the molecule CC(=O)Nc1nc2ccc(-c3ccnc(Sc4ccc(F)cc4)n3)cc2s1 ?
A) 7.36
